# MEASURED ON: T1, EsCas13d, nuclease-dead (Eubacterium siraeum, UniProt B0MS50, R295A;H300A;R849A;H854A)
# T1 sequence: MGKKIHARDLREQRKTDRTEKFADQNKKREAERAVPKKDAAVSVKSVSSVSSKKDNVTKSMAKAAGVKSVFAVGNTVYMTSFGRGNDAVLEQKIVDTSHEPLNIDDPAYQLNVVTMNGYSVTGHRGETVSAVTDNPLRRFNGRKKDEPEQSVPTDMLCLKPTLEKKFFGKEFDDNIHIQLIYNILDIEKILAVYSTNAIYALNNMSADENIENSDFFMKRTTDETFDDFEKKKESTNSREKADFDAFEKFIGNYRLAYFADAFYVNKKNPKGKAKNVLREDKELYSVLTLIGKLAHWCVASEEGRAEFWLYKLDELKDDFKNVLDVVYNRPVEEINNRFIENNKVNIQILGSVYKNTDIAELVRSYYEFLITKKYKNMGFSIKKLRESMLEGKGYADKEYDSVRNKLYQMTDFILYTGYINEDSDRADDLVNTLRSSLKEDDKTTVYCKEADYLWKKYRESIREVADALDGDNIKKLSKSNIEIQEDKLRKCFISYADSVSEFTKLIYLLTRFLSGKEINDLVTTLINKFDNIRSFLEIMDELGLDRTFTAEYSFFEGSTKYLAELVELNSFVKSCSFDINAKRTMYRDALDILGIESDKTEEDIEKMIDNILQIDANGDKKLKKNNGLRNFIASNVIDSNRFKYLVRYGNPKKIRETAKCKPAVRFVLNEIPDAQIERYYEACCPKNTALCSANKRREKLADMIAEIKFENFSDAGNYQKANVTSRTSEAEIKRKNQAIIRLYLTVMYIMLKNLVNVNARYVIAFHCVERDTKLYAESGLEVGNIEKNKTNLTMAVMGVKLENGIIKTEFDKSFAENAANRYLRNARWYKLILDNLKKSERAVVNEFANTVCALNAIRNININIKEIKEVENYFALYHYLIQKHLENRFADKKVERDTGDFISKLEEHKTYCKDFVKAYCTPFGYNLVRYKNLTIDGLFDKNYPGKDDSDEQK
# EXPERIMENTAL PROTOCOL: crRNA (strand 1, pre-loaded); Mg2+; 40 mM Tris-HCl pH 7.5, 150 mM NaCl, 6 mM MgCl2, 1 mM DTT, 0.1% Tween-20, 0.2 mg/ml BSA; 25 C; 10 min per concentration, then washed
# EXPERIMENTAL CONTEXT: tags: His6-TwinStrep-SUMO cleaved; N-terminal SNAP kept (SNAP-Surface 488); label: 3' end held by stalled T7 RNA polymerase
ENDPOINT NAME: pKd
Give bare numbers, as −log10 of the molar value.

Example binders with recorded pKd:
# BINDER, pKd
measured = [
    ("target 1 insU 3' of 12,insG 3' of 1 (mixed) RNA 1: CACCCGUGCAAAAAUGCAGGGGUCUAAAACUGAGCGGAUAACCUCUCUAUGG RNA 2: GGGAAUGGAUCCACAUCUACGAAUUCGUACCAUAGAGAGGUUUAUCCGCUCAGCCGAGAUCGGAAGAGCACACGU", 8.14),
    ("target 1 G12U,G17A (mixed) RNA 1: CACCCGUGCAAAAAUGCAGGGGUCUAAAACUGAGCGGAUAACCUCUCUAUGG RNA 2: GGGAAUGGAUCCACAUCUACGAAUUCGUACCAUAAAGAGUUUAUCCGCUCACCGAGAUCGGAAGAGCACACGU", 7.23),
]

Fill in pKd for each of the 6 binders listed.
1. target 1 C4A,U10C (mixed) RNA 1: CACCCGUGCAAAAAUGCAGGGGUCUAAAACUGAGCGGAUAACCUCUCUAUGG RNA 2: GGGAAUGGAUCCACAUCUACGAAUUCGUACCAUAGAGAGGUCAUCCGAUCACCGAGAUCGGAAGAGCACACGU
2. target 1 C2A,C21A (mixed) RNA 1: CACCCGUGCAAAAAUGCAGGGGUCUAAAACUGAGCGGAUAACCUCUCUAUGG RNA 2: GGGAAUGGAUCCACAUCUACGAAUUCGUACAAUAGAGAGGUUAUCCGCUAACCGAGAUCGGAAGAGCACACGU
3. target 1 MT 5'PFS UUU 3'PFS UCC (mixed) RNA 1: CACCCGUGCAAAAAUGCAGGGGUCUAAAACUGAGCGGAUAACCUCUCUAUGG RNA 2: GGGAAUGGAUCCACAUCUACGAAUUCUUUCCAUAGAGAGGUUAUCCGCUCAUCCAGAUCGGAAGAGCACACGU
4. target 1 A1G,G5C (mixed) RNA 1: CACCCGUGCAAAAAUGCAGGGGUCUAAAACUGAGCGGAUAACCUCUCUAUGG RNA 2: GGGAAUGGAUCCACAUCUACGAAUUCGUACCAUAGAGAGGUUAUCCCCUCGCCGAGAUCGGAAGAGCACACGU
5. target 2 MT 5'PFS UAG 3'PFS ACG (mixed) RNA 1: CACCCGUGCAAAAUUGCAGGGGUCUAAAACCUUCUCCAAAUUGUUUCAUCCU RNA 2: GGGAAUGGAUCCACAUCUACGAAUUCUAGAGGAUGAAACAAUUUGGAGAAGACGAGAUCGGAAGAGCACACGU
6. target 2 MT 5'PFS CUC 3'PFS CGA (mixed) RNA 1: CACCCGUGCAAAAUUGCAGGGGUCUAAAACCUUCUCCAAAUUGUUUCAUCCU RNA 2: GGGAAUGGAUCCACAUCUACGAAUUCCUCAGGAUGAAACAAUUUGGAGAAGCGAAGAUCGGAAGAGCACACGU

Out:
1: 8.26; 2: 7.42; 3: 7.05; 4: 8.00; 5: 8.51; 6: 8.79
